Cited source for all entries: paper PMC9284491

Experiment: Amcenestrant plasma pharmacokinetics (LC-MS/MS, non-compartmental analysis)
Assay type: in vivo, human
Conditions: human, plasma, oral; Part B, 400 mg QD, Day 1, N 16; read-out: tmax, Median
Readout kind: Tmax
Respond with a number, then the unit of measure.

So for "O=C(O)c1ccc2c(c1)CCCC(c1ccc(Cl)cc1Cl)=C2c1ccc(O[C@H]2CCN(CCCF)C2)cc1" , the logged Tmax turned out to be 3.98 h

---

Assay: Amcenestrant plasma pharmacokinetics (LC-MS/MS, non-compartmental analysis)
Type: in vivo, human
Conditions: human, plasma, oral, 400 mg, Part B, 400 mg QD, Day 22, N 13; read-out: Cmax, Geometric mean (CV%)
Readout kind: Cmax

So for "O=C(O)c1ccc2c(c1)CCCC(c1ccc(Cl)cc1Cl)=C2c1ccc(O[C@H]2CCN(CCCF)C2)cc1" , the logged Cmax turned out to be 4220 ng/mL
